Biological target: S-sulfocysteine synthase (Mycobacterium tuberculosis (strain ATCC 25618 / H37Rv))
Sequence (Q79FV4 whole entry): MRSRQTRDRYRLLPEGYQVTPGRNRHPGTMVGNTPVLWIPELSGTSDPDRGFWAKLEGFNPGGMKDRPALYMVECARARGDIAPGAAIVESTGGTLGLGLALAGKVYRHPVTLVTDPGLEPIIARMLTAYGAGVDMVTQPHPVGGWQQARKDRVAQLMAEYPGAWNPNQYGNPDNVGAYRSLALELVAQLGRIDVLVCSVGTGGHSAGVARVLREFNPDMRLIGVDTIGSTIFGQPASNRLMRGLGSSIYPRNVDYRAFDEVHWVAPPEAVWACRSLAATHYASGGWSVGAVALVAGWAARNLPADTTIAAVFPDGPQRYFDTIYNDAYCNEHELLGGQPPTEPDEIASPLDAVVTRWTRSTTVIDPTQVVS
Assay: Inhibition of hexahistidine-tagged recombinant Mycobacterium tuberculosis CysK2 expressed in Escherichia coli BL21(DE3) assessed as amount of S-sulfocysteine produced using […] as substrate incubated for 30 mins by acid-ninhydrin based spectrophotometric assay
compounds and their reported pIC50
A value of pIC50 is the negative decimal logarithm of a concentration given in moles per litre.

Use these answered entries as a reference point.
O=C(Nc1ccc(Cl)cc1)Nc1cccc(C(=O)O)c1 :: 4.89
O=C(Nc1cccc(-c2ccccc2)c1)Nc1ccc(O)c(C(=O)O)c1 :: 4.99
O=C(Nc1cccc(-c2ccccc2)c1)Nc1ccc(C(=O)O)c(O)c1 :: 4.57
O=C(Nc1cccc(C(=O)O)c1)Nc1ccc(Cl)c(Cl)c1 :: 5.00
O=C(Nc1ccc(Br)cc1)Nc1cccc(C(=O)O)c1 :: 4.56
O=C(Nc1cccc(C(=O)O)c1)Nc1cccc(-c2ccccc2)c1 :: 5.18

Continue with the compound presented below.
Identify measured pIC50 obtained with S-sulfocysteine synthase (Mycobacterium tuberculosis (strain ATCC 25618 / H37Rv)) for O=C(Nc1ccc(Cl)c(Cl)c1)Nc1ccc(O)c(C(=O)O)c1 . 4.52
